Would you kindly list fB Cleavage EC50 for each of these binders?
Biological target: Human Factor B (human) (UniProt P00751)
Sequence (P00751 26-764 limits assumed): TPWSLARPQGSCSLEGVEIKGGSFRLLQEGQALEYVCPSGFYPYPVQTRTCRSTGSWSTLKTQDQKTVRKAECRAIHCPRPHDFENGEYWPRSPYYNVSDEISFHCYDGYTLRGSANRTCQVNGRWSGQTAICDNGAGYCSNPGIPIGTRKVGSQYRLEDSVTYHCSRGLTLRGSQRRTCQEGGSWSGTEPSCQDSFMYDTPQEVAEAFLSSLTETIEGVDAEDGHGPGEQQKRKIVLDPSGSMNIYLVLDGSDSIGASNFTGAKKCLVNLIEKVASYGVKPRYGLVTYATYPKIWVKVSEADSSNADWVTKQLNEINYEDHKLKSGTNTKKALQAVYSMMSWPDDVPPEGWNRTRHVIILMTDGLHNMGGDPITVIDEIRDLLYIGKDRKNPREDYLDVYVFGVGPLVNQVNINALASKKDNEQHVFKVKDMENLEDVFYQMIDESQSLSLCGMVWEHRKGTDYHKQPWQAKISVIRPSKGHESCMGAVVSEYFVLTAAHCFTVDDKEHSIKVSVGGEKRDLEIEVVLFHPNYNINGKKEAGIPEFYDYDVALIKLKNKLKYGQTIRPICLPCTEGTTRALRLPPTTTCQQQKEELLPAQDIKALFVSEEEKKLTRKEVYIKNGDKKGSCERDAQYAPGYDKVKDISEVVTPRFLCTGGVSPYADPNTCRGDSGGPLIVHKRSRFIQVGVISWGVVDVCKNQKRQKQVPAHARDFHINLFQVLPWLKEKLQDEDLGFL
Test: cell-based or functional assay
Write it as a number; the unit µM goes unstated.

Query: I am curious: what fB Cleavage EC50 value has been reported for chymase C22S/L99H/F173Y/K192R/Y215K/R217S/S218V/A226R (enzyme) IIGGTESKPHSRPYMAYLEIVTSNGPSKFCGGFLIRRNFVLTAAHCAGRSITVTLGAHNITEEEDTWQKLEVIKQFRHPKYNTSTHHHDIMLLKLKEKASLTLAVGTLPFPSQFNFVPPGRMCRVAGWGRTGVLKPGSDTLQEVKLRLMDPQACSHYRDFDHNLQLCVGNPRKTKSAFRGDSGGPLLCAGVAQGIVSKGSVDAKPPRVFTRISHYRPWINQILQAN ?
Response: 3.46

Query: Repeat with chymase C22S/K40L/F41R/L99H/F173Y/D175Y/S218I/A226R (enzyme) IIGGTESKPHSRPYMAYLEIVTSNGPSLRCGGFLIRRNFVLTAAHCAGRSITVTLGAHNITEEEDTWQKLEVIKQFRHPKYNTSTHHHDIMLLKLKEKASLTLAVGTLPFPSQFNFVPPGRMCRVAGWGRTGVLKPGSDTLQEVKLRLMDPQACSHYRYFDHNLQLCVGNPRKTKSAFKGDSGGPLLCAGVAQGIVSYGRIDAKPPRVFTRISHYRPWINQILQAN
Response: 0.084
